FYI, the data here is from ChEMBL document CHEMBL3352700.

# Protocol Description: Cmax in Beagle Marshall dog at 1 mg/kg, po administered as single dose
# Type: ADME, organism-based, Canis lupus familiaris
# Set-up: dose 1 mg/kg, route oral
# Conditions Used: in vivo
Experimental Endpoint: Cmax (ng/mL)
Return type: number; implicit unit ng/mL.

Determine from records and report Cmax for CN(C)CCn1c(CC(C)(C)C)nc2cc(S(=O)(=O)C3CN(CCO)C3)ccc21
102

====

# Protocol Description: Cmax in IGS rat at 3 mg/kg, po administered as single dose
# Type: ADME, organism-based
# Parameters: dose 3 mg/kg, route oral
# Conditions Used: in vivo
Experimental Endpoint: Cmax (ng/mL)
Return type: number; implicit unit ng/mL.

Determine from records and report Cmax for CN(C)CCn1c(CC(C)(C)C)nc2cc(S(=O)(=O)C3CN(CCO)C3)ccc21
38
